Each entry below carries its reported melting point.

Below, each entry is followed by its recorded melting point result.
>>> result("COc1ccc(Cl)cc1S(=O)(=O)NC1=Nc2ccccc2CN1")
"157 to 165 °C"
>>> result("O=S(=O)(NC1=Nc2ccccc2CN1)c1ccc(Cl)c(Cl)c1")
"192 to 193 °C"
>>> result("O=S(=O)(NC1=Nc2ccccc2CN1)c1c(Cl)cccc1Cl")
"168 to 174 °C"
>>> result("CC1NC(NS(=O)(=O)c2cccc3ccccc23)=Nc2ccc(Cl)cc21 (centres unmarked)")
"144 to 153 °C"
>>> result("O=S(=O)(NC1=Nc2cc(Cl)ccc2CN1)c1cccc2ccccc12")
"214 to 219 °C"

Prompt: Using the record for Cc1cccc2c1CNC(NS(=O)(=O)c1cccc3ccccc13)=N2 , report its melting point.
Response: 233 to 237 °C

Prompt: Using the record for O=S(=O)(NC1=Nc2ccc(F)cc2CN1)c1cccc2ccccc12 , report its melting point.
Response: 206 to 210 °C

Prompt: Using the record for CC1NC(NS(=O)(=O)c2cccc3ccccc23)=Nc2cc(Cl)ccc21 (centres unmarked) , report its melting point.
Response: 214 to 219 °C

Prompt: Using the record for Nc1nc2ccccc2n1S(=O)(=O)c1cccc2cccnc12 , report its melting point.
Response: 254 to 256 °C

Prompt: Using the record for O=S(=O)(NC1=Nc2cccc(Cl)c2CN1)c1ccc(Cl)c2ccccc12 , report its melting point.
Response: 217 to 223 °C

Prompt: Using the record for O=S(=O)(NC1=Nc2ccccc2CN1)c1ccc(Cl)c2ccccc12 , report its melting point.
Response: 188 to 191 °C

Prompt: Using the record for CC1NC(NS(=O)(=O)c2cccc3ccccc23)=Nc2c(Cl)cc(Cl)cc21 (centres unmarked) , report its melting point.
Response: 109 to 116 °C

Prompt: Using the record for O=S(=O)(NC1=Nc2ccccc2CN1)c1cccc2c(Cl)cccc12 , report its melting point.
Response: 185 to 191 °C

Prompt: Using the record for O=S(=O)(NC1=Nc2cccc(Cl)c2CN1)c1c(Cl)ccc2ccccc12 , report its melting point.
Response: 267 to 270 °C

Prompt: Using the record for COc1ccc2c(c1)N=C(NS(=O)(=O)c1cccc3ccccc13)NC2 , report its melting point.
Response: 213 to 217 °C

Prompt: Using the record for O=S(=O)(NC1=Nc2ccccc2CN1)c1c(Cl)ccc2ccccc12 , report its melting point.
Response: 241 to 244 °C

Prompt: Using the record for O=S(=O)(NC1=Nc2ccccc2CN1)c1cccc2cc(Cl)ccc12 , report its melting point.
Response: 210 to 212 °C

----------
Each entry below carries its reported Ki.
System Tested: D2L receptor (Homo sapiens)
Sequence (P14416 whole entry): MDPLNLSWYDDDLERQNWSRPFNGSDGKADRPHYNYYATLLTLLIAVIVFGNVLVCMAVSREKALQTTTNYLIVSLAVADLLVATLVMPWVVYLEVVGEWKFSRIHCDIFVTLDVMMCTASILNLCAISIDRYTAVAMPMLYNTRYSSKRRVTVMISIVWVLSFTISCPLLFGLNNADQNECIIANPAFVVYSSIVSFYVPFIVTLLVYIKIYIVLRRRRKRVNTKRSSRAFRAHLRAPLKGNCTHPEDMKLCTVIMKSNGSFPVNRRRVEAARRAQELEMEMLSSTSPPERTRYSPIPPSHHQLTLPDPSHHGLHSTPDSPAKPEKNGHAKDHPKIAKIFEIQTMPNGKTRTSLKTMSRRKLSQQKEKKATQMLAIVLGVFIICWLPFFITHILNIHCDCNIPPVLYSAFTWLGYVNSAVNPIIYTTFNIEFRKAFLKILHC
Measurement Protocol: [3H]-raclopride radioligand binding assay, D2

Below, each entry is followed by its recorded Ki result.
>>> result("CC1NC(NS(=O)(=O)c2cccc3ccccc23)=Nc2cccc(F)c21 (centres unmarked)")
"146 µM"
>>> result("CC1NC(NS(=O)(=O)c2cccc3ccccc23)=Nc2cccc(Cl)c21 (centres unmarked)")
"622 µM"
>>> result("CC1OC(NS(=O)(=O)c2cccc3ccccc23)=Nc2ccccc21 (centres unmarked)")
"222 µM"

Prompt: Using the record for CC1c2ccccc2N=C(NS(=O)(=O)c2cccc3ccccc23)N1C (centres unmarked) , report its Ki.
Response: 174 µM

Prompt: Using the record for CC1NC(NS(=O)(=O)c2cccc3ccccc23)=Nc2c(Cl)cccc21 (centres unmarked) , report its Ki.
Response: 142 µM

Source of measurements: paper PMC11477289
